Below, each entry is listed alongside its reported GI50.
System: LOX IMVI melanoma
Protocol Text: NCI tumour cell line growth inhibition, 48 h

Req: Item Cc1nc2sc(C(=O)Nc3cccc4c3OCCO4)c(N)c2cc1C(C)O (stereo unspecified) with LOX IMVI melanoma - GI50?
Resp: 5260 nM

Req: Item COc1cccc(/C=C2\COc3ccc(O)c(O)c3C2=O)c1OC with LOX IMVI melanoma - GI50?
Resp: 1530 nM

---

Tested on: HOP-62 NSCLC
Protocol Text: NCI tumour cell line growth inhibition, 48 h
Measure Name: TGI

Worked examples follow.
[
  {
    "Molecule": "C=CCN=C1NC(=O)C(CC(=O)Nc2ccc([N+](=O)[O-])cc2[N+](=O)[O-])S1 (stereo not drawn)",
    "Recorded Value": "> 100 µM"
  },
  {
    "Molecule": "CN1C=C(C(N)=O)Cc2ccsc21",
    "Recorded Value": "> 100 µM"
  }
]

Here is the next item to consider.
Req: TGI lookup needed for CCOC(=O)N1C/C(=C\c2ccc(N(C)C)cc2)C(=O)/C(=C/c2ccc(N(C)C)cc2)C1 , thanks.
Resp: > 100 µM

---

Below, each entry is listed alongside its reported TGI.
System: MDA-MB-231 breast
Protocol Text: NCI tumour cell line growth inhibition, 48 h

[
  {
    "Compound": "CC(C)(C)C1CC[C@H](O)[C@H]([C@@H](O)CC2CC(=O)N(c3ccccc3)C(=O)C2)C1 (some centres undefined)",
    "TGI": "> 100 µM"
  }
]

Req: TGI lookup needed for COC(=O)C1=CCC[C@H]2[C@@]1(COC(C)=O)CC[C@@H](C)[C@]2(C)CC(=O)c1ccoc1 , thanks.
Resp: > 50 µM

Req: TGI lookup needed for CCc1cn(C2CC(CO)C(CO)S2)c(=O)[nH]c1=O (centres undefined) , thanks.
Resp: > 100 µM

Req: TGI lookup needed for C=C(Cl)C(Cl)(CBr)CCCC(C)C (centres undefined) , thanks.
Resp: > 69.5 µM

Req: TGI lookup needed for CC(C)(C(=O)N(C(=O)N1CCN(c2ccccc2)CC1)S(=O)(=O)c1ccccc1)c1ccc(Cl)cc1 , thanks.
Resp: > 100 µM

Req: TGI lookup needed for Cc1ccc2c(n1)C(=O)c1cc(C)c(C)cc1C2=O , thanks.
Resp: > 100 µM

Req: TGI lookup needed for Cc1ncc2c(n1)CCC1=C2OS(=O)(=O)CC1N(C)C (centres undefined) , thanks.
Resp: > 100 µM

---

Tested on: KM12 colon
Protocol Text: NCI tumour cell line growth inhibition, 48 h
Where a SMILES comes first, the peptide text is derived from it. [ ]: non-standard residue; d: D form. The star is where a group is joined. Phe(4-NO2) = N[CH](Cc1ccc([N+](=O)[O-])cc1)C(=O)O; Cbz = O=C(OCc1ccccc1)*
Below, each entry is listed alongside its reported TGI.

[
  {
    "Molecule": "CC(=O)/C=C1/C(=O)C(CC(C)C)=C1CC(C)C",
    "Recorded Value": "> 100 µM"
  },
  {
    "Molecule": "COc1cc(Br)c(/C=N/N=C(\\N)NO)cc1OC",
    "Recorded Value": "> 100 µM"
  },
  {
    "Molecule": "CC(C)CC1C(=O)OC(C)(C)OC1=O",
    "Recorded Value": "> 100 µM"
  }
]

Req: TGI lookup needed for CCOC(=O)CCC(NC(=O)OCc1ccccc1)C(=O)NC(CCC(=O)OCC)C(=O)NC(CCC(=O)OCC)C(=O)NC(CCC(=O)OCC)C(=O)NC(CCC(=O)OCC)C(=O)NC(Cc1ccc([N+](=O)[O-])cc1)C(=O)NC(CCC(=O)OCC)C(=O)NC(CCC(=O)OCC)C(=O)NC(CCC(=O)OCC)C(=O)NC(CCC(=O)OCC)C(=O)NC(CCC(=O)OCC)C(=O)OCC (centres undefined) (Cbz-E(OEt)E(OEt)E(OEt)E(OEt)E(OEt)[Phe(4-NO2)]E(OEt)E(OEt)E(OEt)E(OEt)E(OEt)-OEt; configuration not given here) , thanks.
Resp: > 50 µM
